Target: Sentrin-specific protease 7 (Homo sapiens, UniProt Q9BQF6);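 further: Luminescence-based dose-response confirmation of ultra-high-throughput screening hits, measuring inhibition of SENP7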
Sequence (Q9BQF6 whole entry): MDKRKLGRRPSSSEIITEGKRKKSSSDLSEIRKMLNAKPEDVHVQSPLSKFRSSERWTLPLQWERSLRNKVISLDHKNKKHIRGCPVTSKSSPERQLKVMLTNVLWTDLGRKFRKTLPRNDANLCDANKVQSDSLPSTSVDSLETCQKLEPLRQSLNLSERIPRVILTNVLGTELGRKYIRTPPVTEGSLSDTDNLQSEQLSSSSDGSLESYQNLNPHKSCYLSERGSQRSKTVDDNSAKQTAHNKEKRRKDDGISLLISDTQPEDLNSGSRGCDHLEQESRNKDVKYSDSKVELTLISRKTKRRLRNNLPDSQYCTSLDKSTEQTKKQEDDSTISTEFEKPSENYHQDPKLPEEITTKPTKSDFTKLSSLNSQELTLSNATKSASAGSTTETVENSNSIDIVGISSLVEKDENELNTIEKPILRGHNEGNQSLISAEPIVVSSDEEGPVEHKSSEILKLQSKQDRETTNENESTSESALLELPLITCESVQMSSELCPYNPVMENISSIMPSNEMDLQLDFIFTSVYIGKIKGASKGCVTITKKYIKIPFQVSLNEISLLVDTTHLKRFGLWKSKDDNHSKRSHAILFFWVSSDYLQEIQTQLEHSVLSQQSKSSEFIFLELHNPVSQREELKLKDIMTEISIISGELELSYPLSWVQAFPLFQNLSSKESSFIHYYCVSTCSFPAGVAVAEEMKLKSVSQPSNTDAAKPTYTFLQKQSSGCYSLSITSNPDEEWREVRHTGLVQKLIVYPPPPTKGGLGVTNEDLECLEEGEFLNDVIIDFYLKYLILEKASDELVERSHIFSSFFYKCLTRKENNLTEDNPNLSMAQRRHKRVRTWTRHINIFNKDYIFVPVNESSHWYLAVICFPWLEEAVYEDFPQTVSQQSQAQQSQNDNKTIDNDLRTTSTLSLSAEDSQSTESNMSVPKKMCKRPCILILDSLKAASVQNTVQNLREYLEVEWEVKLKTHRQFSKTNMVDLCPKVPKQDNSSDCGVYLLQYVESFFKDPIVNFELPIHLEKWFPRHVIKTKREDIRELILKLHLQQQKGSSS
Assay type: functional
The source made the active and inactive calls.
Output constraint: value belongs to 1 = active, -1 = inactive

Completed entries (count: 6):
O=C1C=C(Nc2ccccc2C(=O)O)c2ccccc2C1=O | 1
O=C1C(=O)c2ccccc2C(O)=C1CCCCl | 1
CNC(=S)Nc1ccc(-c2nc3ccc(C)cc3s2)cc1 | 1
O=C(O)c1ccc(N/N=C/c2ccc(-c3cc(Cl)ccc3Cl)o2)cc1 | -1
Cc1csc(NC(=O)c2ccc(Br)s2)n1 | 1
Cc1ccc(Cn2ccs/c2=N\C(=O)COC(=O)c2ccc(O)cc2O)cc1 | 1

Any idea what this test logged for "Cc1cccc(-c2noc(-c3c(C)noc3C)n2)c1" ?
1

Record: "CC(C)(C)c1cc[n+](C2=C([N-]S(=O)(=O)c3ccccc3)C(=O)c3ccccc3C2=O)cc1"
1

Record: "Clc1ccsc1-c1csc(-c2cccnc2)n1"
1

Record: "COc1ccc(NC(=S)Nc2ccc3nsnc3c2)cc1"
1

Record: "c1ccc(Nc2nc(-c3ccccc3)ns2)cc1"
1

Record: "CC(C)(C)c1ccc(OCc2nc(-c3ccccn3)no2)c(Br)c1"
1

Record: "Cc1ccc(C(=O)OCC(=O)c2ccc(Cl)s2)s1"
1
